Provenance of the data: paper PMC12040169

assay notes: in vitro
test settings: human, hela cells, % viability
// classify: if (viability at 28.5 h, 10 µM < 90%) T else F

- compound: "CCOC(=O)C1CSCCN1C(=O)c1ccc(-c2cnco2)cc1 (stereo not shown)"
  class assignment: "T"
- compound: "COc1ccc(C)cc1NC(=O)c1cnc2sc(C)cn2c1=O"
  class assignment: "F"
- compound: "CC(=O)N1CCc2cc(-c3cc4ccccn4c3)ccc21"
  class assignment: "F"
- compound: "COc1ccccc1C1(O)CCN(Cc2ccccc2OCc2ccc3c(c2)OCO3)CC1"
  class assignment: "T"
- compound: "COc1cc(C(=O)N2CCN(S(=O)(=O)c3ccccc3[N+](=O)[O-])CC2)cc(OC)c1OC"
  class assignment: "F"
- compound: "Cn1cc(C(=O)N2CCc3nc(-c4cccc(F)c4)sc3C2)cn1"
  class assignment: "F"
- compound: "O=C(O)C1CCN(C2C(=O)Nc3ccc(Cl)cc3C2c2ccccc2)CC1 (stereo not shown)"
  class assignment: "F"
- compound: "O=C(Cc1cccs1)N1CCC(O)(c2ccccn2)CC1"
  class assignment: "F"
- compound: "CCC(Sc1ccc2nnc(-c3ccc(C)cc3)n2n1)C(=O)O (stereo not shown)"
  class assignment: "F"
- compound: "O=C(/C=C/c1ccc(F)cc1)NCCc1ccc(S(=O)(=O)N2CCCC2)cc1"
  class assignment: "T"
- compound: "CC(OC(=O)c1ccc2c(c1)C(=O)N(c1ccc([N+](=O)[O-])cc1)C2=O)C(=O)c1ccccc1 (stereo not shown)"
  class assignment: "F"
- compound: "Nc1nnc(Sc2nc3ccccc3nc2C(F)(F)F)s1"
  class assignment: "F"
- compound: "CCn1c(SCC(=O)Nc2c(Cl)cc(Cl)cc2Cl)nnc1-c1ccccc1F"
  class assignment: "F"
